The measured values listed here are drawn from the supplement of paper PMC13380429.

tested on: A549-ACE2 infected with SARS-CoV-2; experiment: morphology score (similarity to uninfected cells); higher = more like uninfected cells; details: 10 µM; 24 h
Quick list: morphology score per entry.
EXPERIMENTAL ENDPOINT: morphology score

- SMILES: "CC/C(=C(\\c1ccc(O)cc1)c1ccc(OCCN(C)C)cc1)c1ccccc1"
  TEST SYSTEM: "A549-ACE2 infected with SARS-CoV-2"
  EXPERIMENTAL ENDPOINT: "morphology score"
  REPORTED RESULT: 0.83
- SMILES: "COc1cc2c(cc1OC)-c1c/c(=N\\c3c(C)cc(C)cc3C)n(C)c(=O)n1CC2"
  TEST SYSTEM: "A549-ACE2 infected with SARS-CoV-2"
  EXPERIMENTAL ENDPOINT: "morphology score"
  REPORTED RESULT: 0.67
- SMILES: "O=C(CCCN1CCC2(CC1)C(=O)NCN2c1ccccc1)c1ccc(F)cc1"
  TEST SYSTEM: "A549-ACE2 infected with SARS-CoV-2"
  EXPERIMENTAL ENDPOINT: "morphology score"
  REPORTED RESULT: 0.19
- SMILES: "Cc1ccc(NC(=O)c2ccc(CN3CCN(C)CC3)cc2)cc1Nc1nccc(-c2cccnc2)n1"
  TEST SYSTEM: "A549-ACE2 infected with SARS-CoV-2"
  EXPERIMENTAL ENDPOINT: "morphology score"
  REPORTED RESULT: 0.73

###

system: A549-ACE2; assay: drug-induced phospholipidosis relative to tamoxifen; higher = more phospholipidosis; details: 3.33333 µM; 48 h
In this section we review reported drug-induced phospholipidosis values for a set of molecules.
EXPERIMENTAL ENDPOINT: drug-induced phospholipidosis (%)

- MOLECULE: "Clc1cc(Cl)c(OCC#CI)cc1Cl [haloprogin]"
  TEST SYSTEM: "A549-ACE2"
  REPORTED RESULT: 1.31
- MOLECULE: "CCn1c(-c2nonc2N)nc2cncc(C(=O)N3CC[C@H](N)C3)c21"
  TEST SYSTEM: "A549-ACE2"
  REPORTED RESULT: -3.24
- MOLECULE: "CC/C(=C(\\c1ccc(O)cc1)c1ccc(OCCN(C)C)cc1)c1ccccc1 [afimoxifene]"
  TEST SYSTEM: "A549-ACE2"
  REPORTED RESULT: 53.4
- MOLECULE: "COC(=O)C1=C(C)NC(C)=C(C(=O)NCCCN2CCC(c3ccccc3)(c3ccccc3)CC2)C1c1ccc([N+](=O)[O-])cc1 (stereo unspecified) [SNAP-5089]"
  TEST SYSTEM: "A549-ACE2"
  REPORTED RESULT: 77.4
- MOLECULE: "COc1cc2c(cc1OC)-c1c/c(=N\\c3c(C)cc(C)cc3C)n(C)c(=O)n1CC2 [trequinsin]"
  TEST SYSTEM: "A549-ACE2"
  REPORTED RESULT: 5.48
- MOLECULE: "COc1cc2c(NC3CCN(C(C)C)CC3)nc(N3CCC(F)(F)CC3)nc2cc1OCCCN1CCCC1 [UNC0642]"
  TEST SYSTEM: "A549-ACE2"
  REPORTED RESULT: 34

###

tested on: HepG2; assay: cell viability relative to DMSO; higher = less toxic; conditions: 72 h; 1 nM
cell viability by entry:

- COMPOUND: "CCCCCCCCCCCCCCCCCCCCCC(=O)O"
  TEST SYSTEM: "HepG2"
  RESULT UNIT: "%"
  cell viability: 97.6
- COMPOUND: "CO[C@@]1(NC(=O)Cc2cccs2)C(=O)N2C(C(=O)O)=C(COC(N)=O)CS[C@@H]21"
  TEST SYSTEM: "HepG2"
  RESULT UNIT: "%"
  cell viability: 113
- COMPOUND: "Cn1cc(-c2ccc3nnc(Sc4ccc5ncccc5c4)n3n2)cn1"
  TEST SYSTEM: "HepG2"
  RESULT UNIT: "%"
  cell viability: 96.2
- COMPOUND: "CC(ONC(=O)c1cc(C(F)(F)F)cc(C(F)(F)F)c1)C(=O)Nc1ccc(Cl)cc1 (stereo not drawn)"
  TEST SYSTEM: "HepG2"
  RESULT UNIT: "%"
  cell viability: 108
- COMPOUND: "CCCCCCCCCCCC[N+](C)(C)CCOc1ccccc1"
  TEST SYSTEM: "HepG2"
  RESULT UNIT: "%"
  cell viability: 103
- COMPOUND: "COc1cc(C[C@H](C)[C@H](C)Cc2ccc3c(c2)OCO3)ccc1O"
  TEST SYSTEM: "HepG2"
  RESULT UNIT: "%"
  cell viability: 98.4
- COMPOUND: "CCC(=O)[C@@]1(C)[C@H](C)C[C@H]2[C@@H]3CCC4=CC(=O)C=C[C@]4(C)[C@H]3[C@@H](O)C[C@@]21C [rimexolone]"
  TEST SYSTEM: "HepG2"
  RESULT UNIT: "%"
  cell viability: 86.3
- COMPOUND: "CNC[C@H](O)c1cccc(O)c1"
  TEST SYSTEM: "HepG2"
  RESULT UNIT: "%"
  cell viability: 98.7
- COMPOUND: "Nc1nc(/C(=C/CC(=O)O)C(=O)N[C@@H]2C(=O)N3C(C(=O)O)=CCS[C@H]23)cs1"
  TEST SYSTEM: "HepG2"
  RESULT UNIT: "%"
  cell viability: 86.3
- COMPOUND: "NC(=O)c1ncn([C@@H]2O[C@H](CO)[C@@H](O)[C@H]2O)c1N"
  TEST SYSTEM: "HepG2"
  RESULT UNIT: "%"
  cell viability: 98.1
- COMPOUND: "CCCNC(=O)N1N=C(c2ccc(N)cc2)c2cc3c(cc2C1C)OCO3 (stereo not drawn)"
  TEST SYSTEM: "HepG2"
  RESULT UNIT: "%"
  cell viability: 91.9
- COMPOUND: "CNC(=O)c1cc(Oc2ccc(NC(=O)Nc3cc(C(C)(C)C)nn3-c3ccc4ncccc4c3)c(F)c2)ccn1"
  TEST SYSTEM: "HepG2"
  RESULT UNIT: "%"
  cell viability: 104
- COMPOUND: "CN1CCN(Cc2ccc(Nc3ncc(Cl)c(Nc4ccccc4S(=O)(=O)N(C)C)n3)cc2)CC1"
  TEST SYSTEM: "HepG2"
  RESULT UNIT: "%"
  cell viability: 107
- COMPOUND: "CN1C(=O)CCS(=O)(=O)C1c1ccc(Cl)cc1 (stereo not drawn)"
  TEST SYSTEM: "HepG2"
  RESULT UNIT: "%"
  cell viability: 96.5
- COMPOUND: "OCc1cc(C(O)CNCCCCCCOCCCCc2ccccc2)ccc1O (stereo not drawn)"
  TEST SYSTEM: "HepG2"
  RESULT UNIT: "%"
  cell viability: 107
- COMPOUND: "COc1ccc(-c2cc(=O)c3c(OC)c(OC)c(OC)c(OC)c3o2)cc1OC"
  TEST SYSTEM: "HepG2"
  RESULT UNIT: "%"
  cell viability: 96.9
- COMPOUND: "COc1ccc(CCNCC(O)COc2cccc(C)c2)cc1OC (stereo not drawn)"
  TEST SYSTEM: "HepG2"
  RESULT UNIT: "%"
  cell viability: 90.1
- COMPOUND: "O=C1CNC(=O)CN1"
  TEST SYSTEM: "HepG2"
  RESULT UNIT: "%"
  cell viability: 102
